- study.target: human cathepsin H (Homo sapiens)
- Sequence (P09668 116-335 limits assumed, other chains not shown): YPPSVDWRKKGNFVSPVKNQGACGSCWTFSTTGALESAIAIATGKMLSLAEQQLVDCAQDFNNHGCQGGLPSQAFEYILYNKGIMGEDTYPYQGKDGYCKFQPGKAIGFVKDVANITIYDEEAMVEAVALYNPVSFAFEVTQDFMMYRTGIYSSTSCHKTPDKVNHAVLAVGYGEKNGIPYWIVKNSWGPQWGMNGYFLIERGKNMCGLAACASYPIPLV
observation.type: Ki

Kindly indicate its recorded Ki. Item: `CCCC[C@H](NC(=O)OC1(Cc2ccccc2)CCCC1)C(=O)C(=O)N[C@@H](C)C(=O)OCc1ccccc1`
> 1000 nM

----------
Answer each item with its documented Ki.
- study.target: UniProt:P25774
- Sequence (P25774 115-331): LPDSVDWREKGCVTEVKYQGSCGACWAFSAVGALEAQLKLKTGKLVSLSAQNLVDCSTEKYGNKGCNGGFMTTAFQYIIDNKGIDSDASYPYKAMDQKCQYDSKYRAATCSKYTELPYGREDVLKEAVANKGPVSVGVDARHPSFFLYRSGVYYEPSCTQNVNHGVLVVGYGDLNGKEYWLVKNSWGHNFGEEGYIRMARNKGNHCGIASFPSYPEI
- test: cathepsin S inhibition assay, fluorogenic substrate Cbz-Val-Val-Arg-AMC
- protocol.conditions: Table 2; human recombinant enzyme, 10 μM substrate; read-out: hCat S Ki

Examples with answers:
smiles.record: CCCC[C@H](NC(=O)OC1(c2nc3ccccc3s2)CCCC1)C(=O)C(=O)Nc1ccn[nH]1
Ki: 10 to 100 nM
//
smiles.record: CCCC[C@H](NC(=O)OC1(Cc2ccccc2)CCCC1)C(=O)C(=O)N[C@@H](C)C(=O)OCc1ccccc1
Ki: 100 to 1000 nM

--- query ---
Kindly indicate its recorded Ki. Item: `CCCC[C@H](NC(=O)OCC1(Cc2ccc(F)cc2)CCC1)C(=O)C(=O)Nc1n[nH]c2cc(Cl)ccc12`
1 to 10 nM

----------
Answer each item with its documented Ki.
- study.target: human cathepsin K (Homo sapiens)
- Construct: The proform of cathepsin K was converted to mature cathepsin K by brief exposure to pH 4; made in house; host or cells: baculovirus; Trichoplusia ni High Five cells (virus raised in Sf-9)
- Sequence (P43235 115-329): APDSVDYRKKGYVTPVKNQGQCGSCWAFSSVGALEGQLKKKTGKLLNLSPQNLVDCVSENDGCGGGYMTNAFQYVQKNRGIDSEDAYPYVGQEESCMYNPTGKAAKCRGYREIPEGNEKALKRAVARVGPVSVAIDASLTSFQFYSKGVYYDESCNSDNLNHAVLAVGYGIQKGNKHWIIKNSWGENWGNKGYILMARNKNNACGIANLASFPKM
- test: cathepsin K inhibition assay, fluorogenic substrate Cbz-Phe-Arg-AMC, progress curve method
- Type: biochemical
- protocol.conditions: Table 1; human recombinant enzyme, pH 5.5, 30° C., 10 μM substrate; read-out: hcatK Ki
- Protocol: All assays for cathepsin K were carried out with human and rat recombinant enzyme. Assays for cathepsins S & V were also carried out with human recombinant enzyme. […] All assays contained 10% dimethyl sulfoxide. […] Product fluorescence (excitation at 360 nm; emission at 440 nm, (except cathepsin H which used excitation at 340 nm; emission at 420 nm)) was monitored with a PerSeptive Biosystems Cytofluor II fluorescence plate reader. […] Potential inhibitors were evaluated using the progress curve method. […]

Examples with answers:
compound: CCCC[C@H](NC(=O)OCC1(COc2ccnc(N3CCOCC3)n2)CCC1)C(=O)C(=O)N[C@H](C)c1ccccc1
result: 10 to 100 nM
//
compound: CCCC[C@H](NC(=O)OCC1(CSc2nccc(-c3ccc(Cl)cc3)n2)CCC1)C(=O)C(=O)N[C@H](C)c1ccccc1
result: 1 to 10 nM
//
compound: C[C@@H](NC(=O)C(=O)[C@H](CCCCNC(=O)N1CCOCC1)NC(=O)OCC1(Cc2ccccc2)CCCCC1)c1ccccc1
result: 10 to 100 nM
//
compound: CCCC[C@H](NC(=O)OCC1(COc2ccnc(Cl)n2)CCC1)C(=O)C(=O)N[C@H](C)c1ccccc1
result: 100 to 1000 nM
//
compound: CCCC[C@H](NC(=O)OCC1(CCCSc2nccn2C)CCC1)C(=O)C(=O)N[C@H](C)c1ccccc1
result: > 1000 nM
//
compound: CCCC[C@H](NC(=O)OCC1(COc2ncccn2)CCC1)C(=O)C(=O)N[C@H](C)c1ccccc1
result: 100 to 1000 nM

Please state, for each entry, its recorded Ki.
1. CCCC[C@H](NC(=O)OCC1(CSc2ncc(-c3ccc(Cl)cc3)n2C)CCC1)C(=O)C(=O)N[C@H](C)c1ccccc1
2. CNC(=O)NCCCC[C@H](NC(=O)OCC1(Cc2c(F)cccc2F)CCC1)C(=O)C(=O)N[C@H](C)c1ccccc1
3. CCCC[C@H](NC(=O)OCC1(Cc2nc(-c3ccccc3)cs2)CCC1)C(=O)C(=O)N[C@H](C)c1ccccc1
4. CCCC[C@H](NC(=O)OC1(c2nc3ccccc3s2)CCCC1)C(=O)C(=O)Nc1ccn[nH]1
5. CCCC[C@H](NC(=O)OC1(Cc2ccccc2)CCCCC1)C(=O)C(=O)N[C@H](C)c1ccccc1
6. C[C@@H](NC(=O)C(=O)[C@H](CCCCNC(=O)N1CCOCC1)NC(=O)OCC1(Cc2ccc(F)cc2)CCC1)c1ccccc1

100 to 1000 nM
10 to 100 nM
1 to 10 nM
1 to 10 nM
100 to 1000 nM
10 to 100 nM
